Values from paper PMC12820563

Biological target: MBP-FoxP3dN (Mus musculus, UniProt Q99JB6 188-423)
Sequence: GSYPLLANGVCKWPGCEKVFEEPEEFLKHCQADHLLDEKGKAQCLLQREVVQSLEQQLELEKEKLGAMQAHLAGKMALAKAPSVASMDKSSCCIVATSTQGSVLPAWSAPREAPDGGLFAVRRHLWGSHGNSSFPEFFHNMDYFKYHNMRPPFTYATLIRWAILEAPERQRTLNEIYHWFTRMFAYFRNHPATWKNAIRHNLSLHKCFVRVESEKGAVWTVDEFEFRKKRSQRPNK
Experiment: PD-seq (MBP pull-down with sequencing); 20 mM Tris-HCl pH 7.5, 100 mM NaCl, 1.5 mM MgCl2, 0.4 uM protein, 0.1 uM dsDNA library, 30 min, room temperature, amylose pull-down; high values mean tight binding
Details: protein: recombinant; tags: His6-MBP; chain copies: 2; dsDNA, one strand shown
Whole data set: some 16,000 sequences, median “rpm ratio (pull-down/input)” near 0.5, cut for the highest 2% near 5.5. Many of the other results were omitted from the sample, so the highest values are more common in it than they were.
The following sequences are listed with their measured binding signal values.
assayReadout: binding signal

# sequenceRecord, testResult
records = [
    ("GATGATTGTTCTCCCAGCTGATGAATTTGTGCGTTCGAGTAAACAAATTTTCCTAATCTTTCTGTTCAAGCGCCATCTAC", "3.7 RPM ratio (pull-down/input)"),
    ("GATGATTGTTCTCCCAGCTGATGAATTGTGCGTCTCGAGTAAACAAATTTTCCTAATCTTTCTGTTCAAGCGCCATCTAC", "6.12 RPM ratio (pull-down/input)"),
    ("GATGATTGTTCTCCCAGCTGATGAATTGTGCGTTTCGAGTAAACAAATTTTCCTAATCTTTCTGTTCAAGCGCCATCTAC", "5.5 RPM ratio (pull-down/input)"),
    ("GATGATTGTTCTCCCAGCTGATGAATTTTTTATGTCGAGTAAACAAATTTTCCTAATCTTTCTGTTCAAGCGCCATCTAC", "0.31 RPM ratio (pull-down/input)"),
]
